Origin of the recorded values: patent US20230357320A1

Let's look at some compounds and their measured chromatographic logD.
# assay-summary: CHI Log D measurement (chromatographic hydrophobicity index)
# test-parameters: pH 7.4
Positions of bridges follow the written chain, without caps; N, C: chain ends. Non-standard residues stand in square brackets, D forms with d. Residues, ends and D or L forms follow the SMILES beside them. Ala(cPr) = N[C@@H](CC1CC1)C(=O)O; S5 = C=CCCC[C@](C)(N)C(=O)O
Give the figure only, with no unit attached.

chromatographic logD reading for CNC(=O)[C@H](CC(=O)O)NC(=O)[C@H](CC(=O)O)NC(=O)[C@H](CC(C)C)NC(=O)[C@H](CC(C)C)NC(=O)[C@H](Cc1ccc(O)cc1)NC(=O)[C@]1(C)CCCC=CC[C@]2(CCCN2)C(=O)N[C@@H](CC(C)C)C(=O)N[C@@H](CC(C)C)C(=O)N1 (single isomer, unassigned) [PLL5-2 variant 1] : 1.4

chromatographic logD reading for CNC(=O)[C@H](CC(=O)O)NC(=O)[C@H](CCC(N)=O)NC(=O)[C@H](CC(C)C)NC(=O)[C@H](CC(C)C)NC(=O)[C@H](Cc1ccc(O)cc1)NC(=O)[C@]1(C)CCCC=CCCC[C@](C)(NC(C)=O)C(=O)N[C@@H](C)C(=O)N[C@@H](CC2CC2)C(=O)N[C@@H](CC(C)C)C(=O)N1 [PLL7-7 variant 4] (Ac-[S5]A[Ala(cPr)]L[S5]YLLQD-NHMe; staple 1-5) : 2.4

chromatographic logD reading for CNC(=O)[C@H](CC(=O)O)NC(=O)[C@H](CC(C)C)NC(=O)[C@H](CC(C)C)NC(=O)[C@H](Cc1ccc(O)cc1)NC(=O)[C@]1(C)CCCC=CC[C@]2(CCCN2)C(=O)N[C@@H](CC(C)C)C(=O)N[C@@H](CC(C)C)C(=O)N1 (single isomer, unassigned) [PLL4-10 variant 1, H-PL3-Leu-Leu-S5-Tyr-Leu-Leu-Asp-NHMe] : 2.2

chromatographic logD reading for CC(=O)N1CCC[C@]12CC=CCCC[C@@](C)(C(=O)N[C@@H](Cc1ccc(O)cc1)C(=O)N[C@@H](CC(C)C)C(=O)N[C@@H](CC(C)C)C(=O)N[C@@H](CCC(N)=O)C(=O)N[C@@H](CC(=O)O)C(N)=O)NC(=O)[C@H](CC(C)C)NC(=O)[C@H](CC1CC1)NC2=O (single isomer, unassigned) [PLL7-7 variant 3] : 1.8

chromatographic logD reading for CNC(=O)[C@H](CC(N)=O)NC(=O)[C@H](CC(C)C)NC(=O)[C@H](CC(C)C)NC(=O)[C@H](Cc1c[nH]cn1)NC(=O)[C@]1(C)CCCC=CC[C@]2(CCCN2C(C)=O)C(=O)N[C@@H](C)C(=O)N[C@@H](CC(C)C)C(=O)N1 (single isomer, unassigned) [PLL7-20, Ac-PL3-Ala-Leu-S5-His-Leu-Leu-Asn-NHMe] : 2.1

chromatographic logD reading for CNC(=O)[C@H](CC(=O)O)NC(=O)[C@H](CCC(N)=O)NC(=O)[C@H](CC(C)C)NC(=O)[C@H](CC(C)C)NC(=O)[C@H](Cc1ccc(O)cc1)NC(=O)[C@]1(C)CCCC=CC[C@]2(CCCN2C(C)=O)C(=O)O[C@@H](CC(C)C)C(=O)N[C@@H](CC(C)C)C(=O)N1 (single isomer, unassigned) [PLL7-7 variant 2] : 2.6

###

# assay-summary: in vitro
# Parameters: dose or concentration left out as unconfirmed
# test-parameters: PAMPA, pH 7.4, PAMPA Pe
Starred links: 1 amine or outer side, 2 acyl side, 3 side chain; linkers in the order of their positions; H or OH if unused. Positions of bridges follow the written chain, without caps; N, C: chain ends. Non-standard residues stand in square brackets, D forms with d. Residues, ends and D or L forms follow the SMILES beside them. X1 = O=C([C@]1(CC=[*:3])CCCN1[*:1])[*:2]; Ala(cPr) = N[C@@H](CC1CC1)C(=O)O; S5 = C=CCCC[C@](C)(N)C(=O)O
Let's look at some compounds and their measured Papp at 5 h.

CNC(=O)[C@@H](NC(=O)[C@H](CC(C)C)NC(=O)[C@H](CC(C)C)NC(=O)[C@H](CC1CC1)NC(=O)[C@]1(C)CCCC=CC[C@]2(CCCN2C(C)=O)C(=O)N[C@@H]([C@@H](C)O)C(=O)N[C@@H](CC(C)C)C(=O)N1)[C@@H](C)O [PLL7-23, Ac-PL3-Thr-Leu-S5-Cpa-Leu-Leu-Thr-NHMe] (Ac-[X1]TL[S5][Ala(cPr)]LLT-NHMe; staple 1-4) = < 0.1 ×10⁻⁶ cm/s

Papp at 5 h reading for CNC(=O)[C@H](CC(=O)O)NC(=O)[C@H](CC(C)C)NC(=O)[C@H](CC(C)C)NC(=O)[C@H](CCCNC(=N)N)NC(=O)[C@]1(C)CCCC=CC[C@]2(CCCN2C(C)=O)C(=O)N[C@@H](CC(C)C)C(=O)N[C@@H](CC(C)C)C(=O)N1 [PLL5-8, Ac-PL3-Leu-Leu-S5-Arg-Leu-Leu-Asp-NHMe] (Ac-[X1]LL[S5]RLLD-NHMe; staple 1-4) : 0.9 ×10⁻⁶ cm/s

Papp at 5 h reading for CNC(=O)[C@H](CC(=O)O)NC(=O)[C@H](CC(=O)O)NC(=O)[C@H](CC(C)C)NC(=O)[C@H](CC(C)C)NC(=O)[C@H](Cc1ccc(O)cc1)NC(=O)[C@]1(C)CCCC=CC[C@]2(CCCN2C(C)=O)C(=O)N[C@@H](CC(C)C)C(=O)N[C@@H](CC(C)C)C(=O)N1 [PLL5-2] (Ac-[X1]LL[S5]YLLDD-NHMe; staple 1-4) : 1.6 ×10⁻⁶ cm/s

###

# assayed-target: ERβ LBD (Homo sapiens)
# Construct: pET28a+ vector containing ERβ LBD (residues from 261 to 500) along with an N-terminal His6-yBBr-TEV tag; His6 (N); yBBr (N); TEV cleavage site (N); made in house; host or cells: E. coli BL21(DE3) pLysS
# assay-summary: Competition fluorescence polarization (FP) binding assay with FITC-ERL4 probe
# test-parameters: Table 4; binding to ER LBD; estradiol 1 μM, FITC-ERL4 10 nM, ERβ LBD 200 nM; mean ± S.E.M, at least four replicates; read-out: EC50
pEC50: −log10 of the molar value. Starred links: 1 amine or outer side, 2 acyl side, 3 side chain; linkers in the order of their positions; H or OH if unused. Positions of bridges follow the written chain, without caps; N, C: chain ends. Non-standard residues stand in square brackets, D forms with d. Residues, ends and D or L forms follow the SMILES beside them. X1 = O=C([C@]1(CC=[*:3])CCCN1[*:1])[*:2]; Ala(cPr) = N[C@@H](CC1CC1)C(=O)O; S5 = C=CCCC[C@](C)(N)C(=O)O
quantity-kind: pEC50

CNC(=O)[C@H](CC(=O)O)NC(=O)[C@H](CCC(N)=O)NC(=O)[C@H](CC(C)C)NC(=O)[C@H](CC(C)C)NC(=O)[C@H](CCCNC(=N)N)NC(=O)[C@]1(C)CCCC=CC[C@]2(CCCN2C(C)=O)C(=O)N[C@@H](CC2CC2)C(=O)N[C@@H](CC(C)C)C(=O)N1 [PLL7-5] (Ac-[X1][Ala(cPr)]L[S5]RLLQD-NHMe; staple 1-4) = 5.39
CNC(=O)[C@H](CC(=O)O)NC(=O)[C@H](CC(C)C)NC(=O)[C@H](CC(C)C)NC(=O)[C@H](Cc1ccc(O)cc1)NC(=O)[C@]1(C)CCCC=CC[C@]2(CCCN2C(C)=O)C(=O)N[C@@H](CCCCN)C(=O)N[C@@H](CC(C)C)C(=O)N1 (single isomer, unassigned) [PLL5-6, Ac-PL3-Lys-Leu-S5-Tyr-Leu-Leu-Asp-NHMe] = < 5.00

Here's the next entry for you.
Param item: CNC(=O)[C@H](CC(=O)O)NC(=O)[C@H](CC(C)C)NC(=O)[C@H](CC(C)C)NC(=O)[C@H](Cc1ccc(O)cc1)NC(=O)[C@]1(C)CCCC=CC[C@]2(CCCN2C(C)=O)C(=O)N[C@@H]([C@@H](C)O)C(=O)N[C@@H](CC(C)C)C(=O)N1 (single isomer, unassigned) [PLL5-5, Ac-PL3-Thr-Leu-S5-Tyr-Leu-Leu-Asp-NHMe] ; param system: ERβ LBD (Homo sapiens); output pEC50: < 5.00

###

# assay-summary: CHI Log D measurement (chromatographic hydrophobicity index)
# test-parameters: pH 7.4
Let's look at some compounds and their measured chromatographic logD.

CC(=O)N1CCC[C@]12CC=CCCC[C@@](C)(C(=O)N[C@@H](Cc1c[nH]cn1)C(=O)N[C@@H](CC(C)C)C(=O)N[C@@H](CC(C)C)C(=O)N[C@@H](CC(N)=O)C(N)=O)NC(=O)[C@H](CC(C)C)NC(=O)[C@H](C)NC2=O (single isomer, unassigned) = 2.1

chromatographic logD reading for CNC(=O)[C@H](Cc1ccc(O)cc1)NC(=O)[C@H](CCC(N)=O)NC(=O)[C@H](CC(C)C)NC(=O)[C@H](CC(C)C)NC(=O)[C@]1(C)CCCC=CC[C@]2(CCCN2C(C)=O)C(=O)N[C@@H](CC(C)C)C(=O)N[C@@H](Cc2c[nH]cn2)C(=O)N1 (single isomer, unassigned) : 2.5

chromatographic logD reading for CNC(=O)[C@H](CC(=O)O)NC(=O)[C@H](Cc1c[nH]cn1)NC(=O)[C@H](CC(C)C)NC(=O)[C@H](CC(C)C)NC(=O)[C@H](CCCNC(=N)N)NC(=O)[C@]1(C)CCCC=CC[C@]2(CCCN2)C(=O)N[C@@H](CC(C)C)C(=O)N[C@@H](CC(C)C)C(=O)N1 (single isomer, unassigned) : 3.7
